Below are pIC50 values measured for hNK1R (Homo sapiens).
pIC50: −log10 of the molar value.
endpoint: pIC50

Use these answered entries as a reference point.
structure_smiles=C[C@@H](N)C(=O)N[C@H](C)C(=O)N[C@@H](Cc1c[nH]c2ccccc12)C(=O)OCc1cc(C(F)(F)F)cc(C(F)(F)F)c1 endpoint=pIC50 measured_value=7.09
structure_smiles=NCCCCCC(=O)NCCCCCC(=O)N[C@@H](Cc1c[nH]c2ccccc12)C(=O)OCc1cc(C(F)(F)F)cc(C(F)(F)F)c1.O=C(O)C(F)(F)F endpoint=pIC50 measured_value=7.69
structure_smiles=CC(=O)NCCCCCC(=O)N[C@@H](Cc1c[nH]c2ccccc12)C(=O)OCc1cc(C(F)(F)F)cc(C(F)(F)F)c1 endpoint=pIC50 measured_value=7.08
structure_smiles=C[C@@H](NC(=O)OC(C)(C)C)C(=O)N[C@H](C)C(=O)N[C@@H](Cc1c[nH]c2ccccc12)C(=O)OCc1cc(C(F)(F)F)cc(C(F)(F)F)c1 endpoint=pIC50 measured_value=7.86
structure_smiles=CC(C)(C)OC(=O)N[C@@H](Cc1c[nH]c2ccccc12)C(=O)OCc1cc(C(F)(F)F)cc(C(F)(F)F)c1 endpoint=pIC50 measured_value=6.74
structure_smiles=C[C@@H](N)C(=O)N[C@@H](Cc1c[nH]c2ccccc12)C(=O)OCc1cc(C(F)(F)F)cc(C(F)(F)F)c1 endpoint=pIC50 measured_value=7.60

[A] CC(C)(C)OC(=O)NCCCCCC(=O)N[C@@H](Cc1c[nH]c2ccccc12)C(=O)OCc1cc(C(F)(F)F)cc(C(F)(F)F)c1
[B] CC(C)(C)OC(=O)NCCCCCC(=O)NCCCCCC(=O)N[C@@H](Cc1c[nH]c2ccccc12)C(=O)OCc1cc(C(F)(F)F)cc(C(F)(F)F)c1
Task: Hello, I am sorting some records. Could you say if A or B has the smaller pIC50 value? Response format: the label of the selected entry.
Result: A

----------
- experiment description: physchem
- Type: physicochemical
- test conditions: pH 7.4, logD7.4 (Mean ± SD) 68Ga-
- Experimental: A lipophilicity study was also performed right after the SPE method purification and ethanol evaporation. For each DOTA radioconjugate, the lipophilicity value was estimated as the logarithm of the distribution coefficient (D) based on the ratio of the radioactivity of the organic phase to the radioactivity of the aqueous phase in the n-octanol/PBS (pH 7.40) system. […]
Below, each entry is listed alongside its reported logD.
// return a plain number; no unit text

compound="C[C@@H](NC(=O)CN1CCN(CC(=O)O)CCN(CC(=O)O)CCN(CC(=O)O)CC1)C(=O)N[C@H](C)C(=O)N[C@@H](Cc1c[nH]c2ccccc12)C(=O)OCc1cc(C(F)(F)F)cc(C(F)(F)F)c1 [[^68Ga]Ga-3d, metal not drawn]" endpoint=logD measured_value=-0.259
compound="O=C(O)CN1CCN(CC(=O)O)CCN(CC(=O)NCCCCCC(=O)NCCCCCC(=O)N[C@@H](Cc2c[nH]c3ccccc23)C(=O)OCc2cc(C(F)(F)F)cc(C(F)(F)F)c2)CCN(CC(=O)O)CC1 [[^68Ga]Ga-5d, metal not drawn]" endpoint=logD measured_value=-0.466
compound="C[C@@H](NC(=O)CN1CCN(CC(=O)O)CCN(CC(=O)O)CCN(CC(=O)O)CC1)C(=O)N[C@@H](Cc1c[nH]c2ccccc12)C(=O)OCc1cc(C(F)(F)F)cc(C(F)(F)F)c1 [[^68Ga]Ga-2d, metal not drawn]" endpoint=logD measured_value=-0.06
compound="O=C(O)CN1CCN(CC(=O)O)CCN(CC(=O)N[C@@H](Cc2c[nH]c3ccccc23)C(=O)OCc2cc(C(F)(F)F)cc(C(F)(F)F)c2)CCN(CC(=O)O)CC1 [[^68Ga]Ga-1d, metal not drawn]" endpoint=logD measured_value=-0.085

# evaluate next
Task: Tell me measured logD for O=C(O)CN1CCN(CC(=O)O)CCN(CC(=O)NCCCCCC(=O)N[C@@H](Cc2c[nH]c3ccccc23)C(=O)OCc2cc(C(F)(F)F)cc(C(F)(F)F)c2)CCN(CC(=O)O)CC1 [[^68Ga]Ga-4d, metal not drawn] please.
Result: 0.071
